biological target: human TLR8 (Homo sapiens); assay: HEK293-Blue-hTLR-8 cells assay (SEAP reporter, R848 stimulation); conditions: HEK293-Blue-hTLR8 cells, R848, 20 hrs; read-out: HEK/hTLR8 IC50
Sequence (Q9NR97 27-1041): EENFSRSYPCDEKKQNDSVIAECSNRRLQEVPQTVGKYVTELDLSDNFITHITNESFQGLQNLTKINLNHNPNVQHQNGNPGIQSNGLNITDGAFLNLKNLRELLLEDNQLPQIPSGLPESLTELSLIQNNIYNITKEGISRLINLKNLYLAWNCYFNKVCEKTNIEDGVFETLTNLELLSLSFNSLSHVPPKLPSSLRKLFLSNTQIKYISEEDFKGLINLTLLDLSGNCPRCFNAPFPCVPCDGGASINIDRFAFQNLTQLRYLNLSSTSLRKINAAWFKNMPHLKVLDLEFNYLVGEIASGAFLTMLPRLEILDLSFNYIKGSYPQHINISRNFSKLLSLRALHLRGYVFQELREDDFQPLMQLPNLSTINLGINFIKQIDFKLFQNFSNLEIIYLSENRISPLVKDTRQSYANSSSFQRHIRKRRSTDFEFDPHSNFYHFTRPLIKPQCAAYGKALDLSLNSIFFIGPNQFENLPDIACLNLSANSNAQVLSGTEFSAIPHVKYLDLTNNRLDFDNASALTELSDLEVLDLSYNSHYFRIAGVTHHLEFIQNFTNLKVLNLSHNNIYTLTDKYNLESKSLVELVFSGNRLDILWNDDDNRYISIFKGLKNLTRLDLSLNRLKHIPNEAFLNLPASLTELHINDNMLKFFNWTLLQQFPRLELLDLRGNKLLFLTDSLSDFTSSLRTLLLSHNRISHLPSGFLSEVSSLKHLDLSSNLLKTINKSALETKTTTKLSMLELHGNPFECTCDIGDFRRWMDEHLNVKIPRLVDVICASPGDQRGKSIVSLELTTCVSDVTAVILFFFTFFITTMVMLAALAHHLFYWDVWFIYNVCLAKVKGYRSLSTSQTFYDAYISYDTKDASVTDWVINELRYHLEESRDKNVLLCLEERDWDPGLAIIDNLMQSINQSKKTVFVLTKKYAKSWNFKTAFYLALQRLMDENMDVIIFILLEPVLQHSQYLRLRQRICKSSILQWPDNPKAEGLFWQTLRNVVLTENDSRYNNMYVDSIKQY
Reported pIC50 by item:
# reply with the number alone; pIC50 is -log10 of concentration in mol/L

Cc1cc(N2CCN(C[C@H]3CN(c4ccc(C#N)c5ncccc45)C[C@@H](C)O3)CC2)nc(N2C[C@@H]3COC[C@@H](C2)N3)n1 | 8.40
C[C@@H]1CN(c2ccc(C#N)c3ncccc23)C[C@H](CN2CCN(c3ccnc(NC4CNC4)n3)CC2)O1 | 8.40
COC1CNC[C@H]1Nc1cccc(N2CCN(C[C@H]3CN(c4ccc(C#N)c5ncccc45)C[C@@H](C)O3)CC2)n1 (stereo in doubt) | 7.64
C[C@@H]1CN(c2ccc(C#N)c3ncccc23)C[C@H](CN2CCN(c3ccnc(N4CCNCC(O)C4)n3)CC2)O1 (stereo partly drawn) | 8.15
C[C@@H]1CN(c2ccc(C#N)n3ncc(F)c23)C[C@H](CN2CCN(c3ccc(C4(C)CNCCO4)cc3)CC2)O1 (stereo partly drawn) | 7.48

Please look at the following compound next.
Exercise: Fill in the blank: the reported pIC50 of CO[C@H]1CN(c2nc(C)cc(N3CCN(C[C@H]4CN(c5ccc(C#N)c6ncccc56)C[C@@H](C)O4)CC3)n2)C[C@H]1N is ____.
Key: 8.52
